Values compiled from ChEMBL document CHEMBL1147897.

Listed compounds paired with reported IC50
measured_on: Norepinephrine transporter (Rattus norvegicus)
Sequence (Q9WTR4 whole entry): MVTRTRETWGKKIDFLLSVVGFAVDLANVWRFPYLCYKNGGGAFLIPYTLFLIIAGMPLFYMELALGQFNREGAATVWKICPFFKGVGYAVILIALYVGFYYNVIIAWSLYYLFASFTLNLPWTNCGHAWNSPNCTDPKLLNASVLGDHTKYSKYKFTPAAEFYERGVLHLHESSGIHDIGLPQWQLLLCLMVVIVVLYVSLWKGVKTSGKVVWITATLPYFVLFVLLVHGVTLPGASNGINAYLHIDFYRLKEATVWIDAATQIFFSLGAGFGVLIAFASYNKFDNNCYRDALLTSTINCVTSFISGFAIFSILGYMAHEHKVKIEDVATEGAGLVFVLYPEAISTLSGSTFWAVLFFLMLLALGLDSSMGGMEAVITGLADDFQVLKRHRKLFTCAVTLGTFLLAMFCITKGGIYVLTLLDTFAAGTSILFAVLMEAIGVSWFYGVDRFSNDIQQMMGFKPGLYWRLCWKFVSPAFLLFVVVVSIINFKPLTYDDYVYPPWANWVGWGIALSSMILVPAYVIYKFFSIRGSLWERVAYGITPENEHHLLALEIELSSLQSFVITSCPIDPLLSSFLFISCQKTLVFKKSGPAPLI
assay_details: Inhibition of [3H]5-HT uptake at NE transporter in Wistar rat synaptosomes

Some solved entries appear below for comparison.
* CCN(CC)C(=O)[C@]1(c2ccc(OC)cc2)C[C@@H]1CN | 140 nM
* CCN(CC)C(=O)[C@@]1(c2cccc(Cl)c2)C[C@H]1CN | 33 nM
* CCN(CC)C(=O)[C@@]1(c2ccc(Cl)c(Cl)c2)C[C@H]1CN | 26 nM
* CCN(CC)C(=O)[C@]1(c2ccsc2)C[C@@H]1CN | 410 nM

Prompt: Identify measured IC50 corresponding to `CCN(CC)C(=O)[C@@]1(c2ccc(OC)cc2)C[C@H]1CN`
Response: 35 nM

Prompt: Identify measured IC50 corresponding to `CCN(CC)C(=O)[C@@]1(c2cccc3ccccc23)C[C@H]1CN`
Response: 370 nM

Prompt: Identify measured IC50 corresponding to `CCN(CC)C(=O)[C@]1(c2ccc3ccccc3c2)C[C@@H]1CN`
Response: 5 nM

Prompt: Identify measured IC50 corresponding to `CCN(CC)C(=O)[C@@]1(c2ccsc2)C[C@H]1CN`
Response: 19 nM

Prompt: Identify measured IC50 corresponding to `CCN(CC)C(=O)[C@]1(c2ccc(F)cc2)C[C@@H]1CN`
Response: 500 nM

Prompt: Identify measured IC50 corresponding to `CCN(CC)C(=O)[C@@]1(c2ccc3ccccc3c2)C[C@H]1CN`
Response: 29 nM
